clearance: recorded values
Test: Clearance in rat at 1 mg/kg, iv
Assay type: ADME, organism-based
Conditions: in vivo
Entry rule: numbers only, all in mL/min/kg.

Here is how some molecules turned out for clearance.
smiles_structure | clearance / mL/min/kg
Cc1cc(C(=O)O)cc(C)c1NC(=O)c1cc(-c2cccc(CO)c2)nc2ccccc12 | 59.6
Cc1ccc(C(=O)O)c(C)c1NC(=O)c1cc(-c2cccc(Cl)c2)cc2ccccc12 | 1.9

# next molecule below
Request: Please look up its clearance: Cc1ccc(C(=O)O)c(C)c1NC(=O)c1cc(-c2cccc(CO)c2)cc2ccccc12
Result: 23.8

* * *

Experiment: Drug metabolism in rat hepatic microsomes incubated for 30 mins in presence of NADPH
Assay type: ADME, Microsome
Conditions: liver microsomes, read-out: Drug metabolism
measurement_name: metabolised at 0.5 h

Here is how some molecules turned out for metabolised at 0.5 h.
smiles_structure | metabolised at 0.5 h
Cc1ccc(C(=O)O)c(C)c1NC(=O)c1cc(-c2cccc(CO)c2)cc2ccccc12 | < 1%
Cc1ccc(C(=O)O)c(C)c1NC(=O)c1cc(-c2cccc(Cl)c2)cc2ccccc12 | 7%

# next molecule below
Request: Please look up its metabolised at 0.5 h: Cc1cc(C(=O)O)cc(C)c1NC(=O)c1cc(-c2cccc(CO)c2)nc2ccccc12
Result: < 1%

This collection of values is drawn from ChEMBL document CHEMBL3739413.
